system: HeLa cells; experiment: Cytotoxicity assay (CCK-8); format: cell-based, human; details: 48 h
Bridge positions count the residues as written; N and C are the ends. Square brackets hold non-standard residues; d marks the D form. Peptide text beside a SMILES is read from it. * marks the point of attachment. Octanoyl(3R-OH) = CCCCC[C@@H](O)CC(=O)*; Myristoyl = CCCCCCCCCCCCCC(=O)*; Orn = NCCC[C@H](N)C(=O)O; Dab = NCC[C@H](N)C(=O)O; Dap = NC[C@H](N)C(=O)O
# key: entry, value: MIC (μg/mL) Hela

Example compounds with recorded MIC (μg/mL) Hela:
CCCCCCCCCCCCCC(=O)N[C@@H](Cc1ccccc1)C(=O)N[C@H]1CCCNC(=O)CNC(=O)[C@H](CCN)NC(=O)[C@@H](Cc2ccc(O)cc2)NC(=O)[C@H](CC(C)C)NC(=O)[C@H]([C@@H](C)CC)NC(=O)[C@@H](C(C)C)NC(=O)[C@H](CCCN)NC1=O [synAQU2-C2] (Myristoyl-F[Orn][Orn][dV]IL[dY][Dab]G; lactam 2-C (inferred)); > 64 µg/mL
CCCCC[C@@H](O)CC(=O)N[C@@H](CN)C(=O)N[C@@H](Cc1ccccc1)C(=O)N[C@@H](CCN)C(=O)N[C@@H]1C(=O)N[C@H](Cc2ccccc2)C(=O)N[C@@H](CN)C(=O)N[C@H](CC(C)C)C(=O)N[C@@H](C(C)C)C(=O)N[C@@H](CC(=O)O)C(=O)O[C@@H]1C [synAQU3-C4] ({Octanoyl(3R-OH)}-[Dap]F[Dab]T[dF][Dap][dL]VD; ester 4-C (inferred)); > 64 µg/mL
CCCCCCCCCCCCCC(=O)N[C@@H](Cc1ccccc1)C(=O)N[C@@H](CCCN)C(=O)N[C@@H](CCCN)C(=O)N[C@@H](C(=O)N[C@H](C(=O)N[C@@H](CC(C)C)C(=O)N[C@H](Cc1ccc(O)cc1)C(=O)N[C@@H](CCN)C(=O)NCC(=O)O)[C@@H](C)CC)C(C)C [synAQU2-L] (Myristoyl-F[Orn][Orn][dV]IL[dY][Dab]G-OH); > 64 µg/mL
CCCCCCCCCCCCCC(=O)N[C@@H](CCCCN)C(=O)N[C@@H](CCCNC(=N)N)C(=O)N[C@@H](CC(C)C)C(=O)N[C@@H](C)C(=O)N[C@@H](CC(C)C)C(=O)N[C@@H]1C(=O)N[C@@H](CC(=O)O)C(=O)N[C@@H](CC(=O)O)C(=O)N[C@@H](C(C)C)C(=O)N[C@@H](CC(N)=O)C(=O)N[C@@H](C(C)C)C(=O)N[C@H](Cc2ccccc2)C(=O)N[C@@H](CC(N)=O)C(=O)O[C@@H]1C [synAQU7-C6] (Myristoyl-KRLALTDDVNV[dF]N; ester 6-C); > 64 µg/mL

Now look at this entry.
query: For the compound CCCCC[C@@H](O)CC(=O)N[C@@H](CN)C(=O)N[C@@H](Cc1ccccc1)C(=O)N[C@@H](CCN)C(=O)N[C@H](C(=O)N[C@H](Cc1ccccc1)C(=O)N[C@@H](CN)C(=O)N[C@H](CC(C)C)C(=O)N[C@H](C(=O)N[C@@H](CC(=O)O)C(=O)O)C(C)C)[C@@H](C)O [synAQU3-L] ({Octanoyl(3R-OH)}-[Dap]F[Dab]T[dF][Dap][dL]VD-OH) , what MIC (μg/mL) Hela is on record?
result: > 64 µg/mL

// provenance: paper PMC12677607
